# system.under.test: 5-hydroxytryptamine receptor 5A (Homo sapiens) (UniProt P47898)
# Sequence (P47898 whole entry, looked up): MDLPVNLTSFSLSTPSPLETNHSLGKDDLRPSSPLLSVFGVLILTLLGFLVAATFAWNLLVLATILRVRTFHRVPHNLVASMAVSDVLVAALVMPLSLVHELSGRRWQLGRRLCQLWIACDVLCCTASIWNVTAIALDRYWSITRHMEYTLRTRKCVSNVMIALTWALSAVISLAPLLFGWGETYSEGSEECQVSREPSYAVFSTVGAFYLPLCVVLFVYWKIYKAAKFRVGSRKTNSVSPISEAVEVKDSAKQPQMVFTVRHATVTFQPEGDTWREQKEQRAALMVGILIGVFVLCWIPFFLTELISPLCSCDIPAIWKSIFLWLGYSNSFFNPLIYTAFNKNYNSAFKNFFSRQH
# test.details: activation of human 5-HT5A receptor – cell-based, luminescence, full-deck HTS, counter-screen for OPRM1-OPRD1 heterodimer agonist project, primary screen (AID 504692);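 note: 0% = cells with vehicle only and 100% = reference agonist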
# run.conditions: HTR5A agonist assay, at 9.3 µM, active compounds read high
Hit rate of the full screen: of about 340,000 compounds, about 2,000 (0.59%) were called active. Only a selection was taken, and actives are over-represented in it overall.

compound: Cc1cc(C)c2nc(N(CCN(C)C)C(=O)/C=C/c3cccs3)sc2c1
activation: 11.5% (active)
--
compound: CC1CC(C)CN(C(=O)C2CC(=O)N(c3ccc(F)cc3)C2)C1 (stereo not given)
activation: 5.22% (inactive)
--
compound: O=C(COc1ccccc1Cl)Nn1cnnc1
activation: 0.57% (inactive)
--
compound: CN(c1ccccc1)S(=O)(=O)c1cc(C(=O)OCC(=O)N2CCN(C(=O)c3ccco3)CC2)ccc1Cl
activation: 3.06% (inactive)
--
compound: O=C(NCc1cc(F)cc(C(F)(F)F)c1)C1CCC(=O)N(C2CCCC2)C1 (stereo not given)
activation: 2.09% (inactive)
--
compound: Cc1cc(C)c(S(=O)(=O)NCC(c2ccc3c(c2)OCO3)N2CCOCC2)c(C)c1 (stereo not given)
activation: -4.07% (inactive)
--
compound: O=C(c1cccc([N+](=O)[O-])c1)N1CCN(Cc2ccccc2)CC1
activation: 5.31% (inactive)
--
compound: Cc1ccc2sc(N(CCN(C)C)C(=O)/C=C/c3cccs3)nc2c1C
activation: 6.97% (inactive)
--
compound: Cc1ccc2nc(N(CCN(C)C)C(=O)C3=COCCO3)sc2c1
activation: -2.68% (inactive)
--
compound: COc1ccc(S(=O)(=O)N2CCC(C(=O)NCCC(=O)NCc3cccc(OC)c3)CC2)cc1
activation: -0.19% (inactive)

* * *

# system.under.test: 5-hydroxytryptamine receptor 5A (Homo sapiens) (UniProt P47898)
# test.details: activation of human 5-HT5A receptor – cell-based, luminescence, full-deck HTS, counter-screen for OPRM1-OPRD1 heterodimer agonist project, primary screen (AID 504692);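 note: 0% = cells with vehicle only and 100% = reference agonist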
# run.conditions: HTR5A agonist assay, at 9.3 µM, active compounds read high
Among all 340,000 compounds or so, about 2,000 (0.59%) were called active. This excerpt belongs to a sample that is enriched for actives.
Catalogue of activation readings, one per entry.

compound: CCc1nn(CCCC(=O)Nc2ccc(C)cc2C)c(=O)c2cc3occc3n12
activation / %: 0.19
--
compound: O=C(O)COc1ccc(/C=N/O)cc1Br
activation / %: 1.32
--
compound: CC(=O)Nc1ccc(S(=O)(=O)N2CCn3cccc3C2C)cc1 (stereo unspecified)
activation / %: -2.82
--
compound: CC1CCC2CCCCC2N1C(=O)c1cc([N+](=O)[O-])cc([N+](=O)[O-])c1 (stereo unspecified)
activation / %: 4.16
--
compound: O=C(NNS(=O)(=O)c1ccc([N+](=O)[O-])cc1)C1CCCCC1
activation / %: -4.2
--
compound: CCn1nnc(NC(=O)c2cc(Cl)c(OC)c(Cl)c2)n1
activation / %: -6.18
--
compound: CN(CC(=O)Nc1ccccc1Cl)C(=O)COc1cccc2c1OC(C)(C)C2
activation / %: 2.73
--
compound: NC(=O)c1ccc(N2CCOCC2)nc1
activation / %: 5.3
--
compound: Cc1ccc(CNC(=O)C2CCCN2C(=O)NCc2ccccc2)cc1 (stereo unspecified)
activation / %: -0.36
--
compound: Cc1cc(C)c(S(=O)(=O)N(C)CC(=O)NCC2CCCO2)c(C)c1 (stereo unspecified)
activation / %: 8.59
--
compound: COC(=O)COc1ccc2c(c1C)O/C(=C\c1ccco1)C2=O
activation / %: -6.31

* * *

# system.under.test: 5-hydroxytryptamine receptor 5A (Homo sapiens)
# test.details: activation of human 5-HT5A receptor – cell-based, luminescence, full-deck HTS, counter-screen for OPRM1-OPRD1 heterodimer agonist project, primary screen (AID 504692);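 note: 0% = cells with vehicle only and 100% = reference agonist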
# run.conditions: HTR5A agonist assay, at 9.3 µM
Among all 340,000 compounds or so, about 2,000 (0.59%) were called active. Cut-off read from the data, not from the text of the source: active = activation mostly above about 9.5% (no sharp cut-off); inactive = mostly below about 7.6%. This is one part of a sample in which actives are shown more often than they occur.
Classes used: active, inactive

molecule: Cc1cc(C)cc(C(=O)NCC(=O)OCC(=O)N2CCCCC2)c1
answer.label: inactive
--
molecule: CCOC(=O)c1c(-c2cccc(C)c2)csc1NC(=O)c1c(-c2ccccc2)noc1C
answer.label: inactive
--
molecule: CC1=C(C)CC2C(=O)N(c3cccc4ccccc34)C(=O)C2C1 (centres undefined)
answer.label: inactive
--
molecule: COc1ccccc1CNC(=O)COn1nnc2ccc(S(=O)(=O)N3CCOCC3)cc21
answer.label: inactive
--
molecule: CCOC(=O)c1c(-c2ccc(-c3ccccc3)cc2)csc1NC(=O)CCC(=O)O
answer.label: active
--
molecule: Cc1ccc2nc(SC(C)C(=O)NCc3ccco3)[nH]c2c1 (centres undefined)
answer.label: inactive
--
molecule: O=C(CCl)NNc1cccc(Cl)n1
answer.label: inactive
--
molecule: Nc1ccc2nn(-c3ccc(Cl)cc3)nc2c1
answer.label: inactive
--
molecule: COc1ccc(NC(=O)COC(=O)c2ccc(NS(=O)(=O)/C=C/c3ccccc3)cc2)cc1
answer.label: inactive
--
molecule: CCn1c(C(C)C)n[nH]c1=S
answer.label: inactive
--
molecule: CC(NC(=O)COc1ccc(-c2ccccc2)cc1)C1CCCO1 (centres undefined)
answer.label: inactive
--
molecule: Cc1noc(C)c1S(=O)(=O)N(CC(=O)NCc1ccc(Cl)cc1)c1ccc2c(c1)OCO2
answer.label: inactive
--
molecule: CC(C)(C)NC(=O)COC(=O)c1cc(Cl)ccc1[N+](=O)[O-]
answer.label: inactive
--
molecule: COC(=O)c1cc(C(=O)OCC(=O)Nc2cc(C)on2)cc([N+](=O)[O-])c1
answer.label: active
--
molecule: COc1cccc2cc(-c3cc(=O)oc4cc(C)c(O)cc34)oc12
answer.label: inactive
--
molecule: COc1ccc(Nc2cc(=O)oc3ccccc23)cc1
answer.label: inactive
--
molecule: Cc1cccc(NC(=O)CN2CCCN(S(=O)(=O)c3ccc(Br)s3)CC2)c1
answer.label: inactive
--
molecule: CC(=O)N1CCN(S(=O)(=O)c2ccc(C)c([N+](=O)[O-])c2)C1C(C)C (centres undefined)
answer.label: inactive
--
molecule: Cc1ccc2nc(-c3ccc(SCC(=O)Nc4cc(C)on4)nc3)[nH]c2c1
answer.label: inactive
--
molecule: Cc1c(C(=O)N2CCCc3ccccc32)oc2ccccc12
answer.label: inactive
--
molecule: Cc1cc(NC(=O)CSc2nccn2-c2ccc([N+](=O)[O-])cc2)no1
answer.label: inactive
--
molecule: COc1ccc(S(=O)(=O)N2CCN(CC(=O)N3c4ccccc4CC3C)CC2)cc1OC (centres undefined)
answer.label: active
--
molecule: COc1ccc(C/C(N)=N/OC(=O)c2ccco2)cc1OC
answer.label: inactive
--
molecule: NC(=O)N1CCCC1C(=O)Nc1ccc(Cl)c(Cl)c1 (centres undefined)
answer.label: inactive
--
molecule: C=CCOC(=O)C1=C[C@@H](c2ccc3c(c2)OCO3)C[C@@H](OCCCCO)O1
answer.label: inactive
--
molecule: COc1ccc(CCNC(=O)C(Sc2ccccn2)c2ccccc2)cc1OC (centres undefined)
answer.label: inactive
--
molecule: Cc1cc(C)cc(C(=O)N(CCc2ccccc2)C2=CC3CCC(C2)N3C)c1 (centres undefined)
answer.label: inactive
--
molecule: CCc1ccc(C2N3CC4([N+](=O)[O-])CN2CC([N+](=O)[O-])(C3)C4(C)C)cc1 (centres undefined)
answer.label: inactive
--
molecule: CCOC(=O)c1c(-c2ccc(C)cc2C)csc1NC(=O)CSc1nnnn1C
answer.label: inactive
--
molecule: Cc1c(C(=O)OCC(=O)N2CCCC2=O)oc2ccccc12
answer.label: active
--
molecule: COc1ccc(C(CCN(Cc2ccc(OC)c(OC)c2)C(=O)CCl)c2ccccc2)cc1 (centres undefined)
answer.label: active
--
molecule: Cc1ccc(SCCC(=O)Nc2cc(C)on2)cc1
answer.label: inactive
--
molecule: Cc1nn(Cc2ccc(Cl)cc2)c(Cl)c1/C=N/NC(=O)c1cccnc1
answer.label: inactive
--
molecule: COc1ccc2oc(=O)cc(-c3cc4ccccc4o3)c2c1
answer.label: active
--
molecule: O=C(CC(O)(C(F)(F)F)C(F)(F)F)Nc1ccc(Cl)c(Cl)c1
answer.label: active
--
molecule: CC1Cc2ccccc2N1C(=O)CSc1nnc(-c2ccc(S(=O)(=O)N3CCCC3)cc2)n1C (centres undefined)
answer.label: inactive
--
molecule: COc1ccc(COC(=O)NC(C(=O)O)c2ccccc2)cc1 (centres undefined)
answer.label: inactive
--
molecule: O=C(COC(=O)c1n[nH]c2ccccc12)Nc1ccccc1Br
answer.label: inactive
--
molecule: O=C1CCCc2nn(-c3ccccc3)nc21
answer.label: inactive
--
molecule: Cc1ccc(CN2C(=O)N/C(=C/c3cc(C)n(-c4ccccn4)c3C)C2=O)cc1
answer.label: inactive
--
molecule: c1ccc(-n2nc3ccccc3n2)cc1
answer.label: active
--
molecule: O=C(N/N=C\c1ccc(Br)cc1)c1ccc(Cn2cccn2)o1
answer.label: inactive
--
molecule: COc1cc2c(cc1OC)C1C(=O)c3cc(OS(C)(=O)=O)c(OC)cc3C1N(C)C2=O (centres undefined)
answer.label: inactive
--
molecule: COc1ccccc1CNS(=O)(=O)CC12CCC(CC1=O)C2(C)C (centres undefined)
answer.label: inactive
